Origin of values: patent US20230408517A1

system.under.test: UK variant RBD (R319-F541 with N501Y), C-terminal 6-His (SARS-CoV-2, UniProt P0DTC2 319-541)
assay.details: lateral flow NC50, RBD-AuNP vs immobilised ACE2
Consider the following binders; for each one, report its IC50.
Give bare numbers, in µg/mL.

Sample records with IC50:
1035762 (antibody, V domains shown) VH: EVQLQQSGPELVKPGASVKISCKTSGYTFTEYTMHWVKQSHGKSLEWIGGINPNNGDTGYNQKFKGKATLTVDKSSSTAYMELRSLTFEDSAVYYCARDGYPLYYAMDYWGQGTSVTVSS VL: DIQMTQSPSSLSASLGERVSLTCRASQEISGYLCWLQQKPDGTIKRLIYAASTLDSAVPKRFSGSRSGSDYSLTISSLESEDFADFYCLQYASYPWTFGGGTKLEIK | 0.95
1035419 (antibody, V domains shown) VH: QVQLKQSGAELVRPGASVKLSCKTSGYIFTSYWIHWIKQRSGQGLEWIARIYPGTGSTYNNEKFKGKATLTADKSSSTAYMQLSSLKSEDSAVYFCARGEDNLYFYAMDYWGQGTSVTVSS VL: NIVLTQSPASLAVSLGQRATISCRASESVDSYGASFMHWCQQKPGQPPKLLIYLASNLESGVPARFSGSGSRTDFTLTIDPVEADDAATYYCQQNYEDPWTFGGGTKLEIK | 27.6

The record that follows has no IC50 shown yet.
# IC50 lookup, item 1035224 (antibody, V domains shown) VH: EVQLQQSGAEFVRPGALVKLSCKASGFNIKDDYMHWVKQRPEQGLEWIGWIDPENGNSIYDPKFQGKASITADTSSNTAYLQLSSLTSEDTAVYYCARGEYFGSGSFAYWGQGTLVTVSA VL: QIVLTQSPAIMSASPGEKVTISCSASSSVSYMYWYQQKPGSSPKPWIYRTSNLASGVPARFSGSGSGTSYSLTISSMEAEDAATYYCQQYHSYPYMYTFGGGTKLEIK 2.72
